Every entry's value here was drawn from patent US9404081B2.

# measured target: PKR R532W (Homo sapiens, UniProt P30613, R532W)
# Sequence (P30613 whole entry R532W): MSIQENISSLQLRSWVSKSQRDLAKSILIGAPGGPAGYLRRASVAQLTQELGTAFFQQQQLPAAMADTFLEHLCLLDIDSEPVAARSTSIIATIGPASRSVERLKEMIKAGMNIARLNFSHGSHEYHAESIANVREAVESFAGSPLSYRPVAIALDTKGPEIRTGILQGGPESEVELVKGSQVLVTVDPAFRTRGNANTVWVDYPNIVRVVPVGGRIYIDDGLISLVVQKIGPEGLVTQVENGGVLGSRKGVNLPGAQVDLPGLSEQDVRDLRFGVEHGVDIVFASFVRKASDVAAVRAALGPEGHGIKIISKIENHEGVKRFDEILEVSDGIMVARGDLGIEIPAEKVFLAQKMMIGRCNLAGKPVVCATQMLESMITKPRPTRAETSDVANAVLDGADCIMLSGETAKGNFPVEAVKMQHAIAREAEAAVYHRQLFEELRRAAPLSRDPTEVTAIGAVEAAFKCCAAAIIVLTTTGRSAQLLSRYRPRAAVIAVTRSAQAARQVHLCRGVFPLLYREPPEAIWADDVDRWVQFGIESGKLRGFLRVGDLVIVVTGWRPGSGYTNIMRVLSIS
# test name: PKR R532W Single Point Percent Activation Assay
# Format: biochemical
# settings: read-out: Act, % 532W
Could you please report measured activation at 1 µM for the items listed next?

QUERY: Given the entry `CC[C@H]1CN(Cc2ccc(F)cc2)CCN1C(=O)c1ccc(NS(=O)(=O)c2cccc3cccnc23)cc1` , report its measured activation at 1 µM.
RESULT: 101 to 500%

QUERY: `C[C@H]1CN(Cc2ccc(F)cc2)CCN1C(=O)c1ccc(NS(=O)(=O)c2cccc3cccnc23)cc1` ?
RESULT: 1 to 100%

QUERY: `C[C@@H]1CN(CC2CCCCC2)CCN1C(=O)c1ccc(NS(=O)(=O)c2cccc3cccnc23)cc1` ?
RESULT: 101 to 500%

QUERY: CC[C@H]1CN(C(C)c2cc(F)c(F)c(F)c2)CCN1C(=O)c1ccc(NS(=O)(=O)c2cccc3cccnc23)cc1 (some centres unmarked) ?
RESULT: 1 to 100%

QUERY: C[C@@H]1CN(C(=O)OC2CCCOC2)CCN1C(=O)c1ccc(NS(=O)(=O)c2cccc3cccnc23)cc1 (some centres unmarked) ?
RESULT: 101 to 500%

QUERY: `C[C@@H]1CN(Cc2cc(F)cc(F)c2)CCN1C(=O)c1ccc(NS(=O)(=O)c2cccc3cccnc23)cc1` ?
RESULT: 1 to 100%

QUERY: `C[C@@H]1CN(Cc2cc(F)cc(F)c2F)CCN1C(=O)c1ccc(NS(=O)(=O)c2cccc3cccnc23)cc1` ?
RESULT: 101 to 500%

QUERY: `C[C@H]1CN(Cc2c(F)cc(F)cc2F)CCN1C(=O)c1ccc(NS(=O)(=O)c2cccc3cccnc23)cc1` ?
RESULT: 101 to 500%

QUERY: `C[C@@H]1CN(C(=O)OC2CCCCC2)CCN1C(=O)c1ccc(NS(=O)(=O)c2cccc3cccnc23)cc1` ?
RESULT: 1 to 100%

QUERY: `O=C(c1ccc(NS(=O)(=O)c2cccc3cccnc23)cc1)N1CCN(Cc2ccc(F)cc2)c2ccccc21` ?
RESULT: 1 to 100%

QUERY: `O=C(c1ccc(NS(=O)(=O)c2cccc3cccnc23)cc1)N1CCN(C[C@@H]2CCOC2)CC1` ?
RESULT: 1 to 100%

QUERY: `CC(C)[C@H]1CN(Cc2ccc(F)cc2)CCN1C(=O)c1ccc(NS(=O)(=O)c2cccc3cccnc23)cc1` ?
RESULT: 1 to 100%

QUERY: `C[C@H]1CN(CC2CCC2)CCN1C(=O)c1ccc(NS(=O)(=O)c2cccc3cccnc23)cc1` ?
RESULT: 101 to 500%

QUERY: `O=C(c1ccc(NS(=O)(=O)c2cccc3cccnc23)cc1)N1CCN(CC2CC2)c2ccccc21` ?
RESULT: 101 to 500%

QUERY: CC1CN(Cc2c(F)ccc(F)c2F)CC(C)N1C(=O)c1ccc(NS(=O)(=O)c2cccc3cccnc23)cc1 (centres unmarked) ?
RESULT: 101 to 500%

QUERY: COc1ccccc1N1CCN(C(=O)c2ccc(NS(=O)(=O)c3cccc4cccnc34)cc2)C(C)C1 (centres unmarked) ?
RESULT: 101 to 500%

QUERY: CC(c1ccccc1F)N1CCN(C(=O)c2ccc(NS(=O)(=O)c3cccc4cccnc34)cc2)[C@H](C)C1 (some centres unmarked) ?
RESULT: 1 to 100%

###

# measured target: PKR T384W (Homo sapiens, UniProt P30613, T384W)
# Sequence (P30613 whole entry T384W): as the sequence (P30613 whole entry R532W) above, with T384W, W532R counted along it
# test name: PKR T384W Single Point Percent Activation Assay
# Type: biochemical
# settings: read-out: Act. % 384W
assay metric: activation at 1 µM

QUERY: Given the entry C[C@H]1CN(CC2CCOC2)CCN1C(=O)c1ccc(NS(=O)(=O)c2cccc3cccnc23)cc1Cl (some centres unmarked) , report its measured activation at 1 µM.
RESULT: 101 to 500%

QUERY: `C[C@@H]1CN(CC2CCCCC2)CCN1C(=O)c1ccc(NS(=O)(=O)c2cccc3cccnc23)cc1` ?
RESULT: 1 to 100%

QUERY: `O=C(c1ccc(NS(=O)(=O)c2cccc3cccnc23)cc1)N1CC2CCC(C1)N2Cc1cc(F)cc(F)c1` ?
RESULT: 101 to 500%

QUERY: CC1CN(Cc2cc(F)cc(F)c2)CC(C)N1C(=O)c1ccc(NS(=O)(=O)c2cccc3cccnc23)cc1 (centres unmarked) ?
RESULT: 1 to 100%

QUERY: CC(c1ccc(F)cc1)N1CCN(C(=O)c2ccc(NS(=O)(=O)c3cccc4cccnc34)cc2)[C@@H](C)C1 (some centres unmarked) ?
RESULT: 101 to 500%

QUERY: `O=C(c1ccc(NS(=O)(=O)c2cccc3cccnc23)cc1)N1CCN(C[C@H]2CCOC2)CC1` ?
RESULT: 101 to 500%

QUERY: CC(c1ccc(Cl)c(F)c1)N1CCN(C(=O)c2ccc(NS(=O)(=O)c3cccc4cccnc34)cc2)[C@H](C)C1 (some centres unmarked) ?
RESULT: 101 to 500%

QUERY: `O=C(c1ccc(NS(=O)(=O)c2cccc3cccnc23)cc1)N1CC2CCC(C1)N2Cc1ccccc1` ?
RESULT: 101 to 500%

###

# measured target: PKR R510Q (Homo sapiens, UniProt P30613, R510Q)
# Sequence (P30613 whole entry R510Q): as the sequence (P30613 whole entry R532W) above, with R510Q, W532R counted along it
# test name: PKR R510Q Single Point Percent Activation Assay
# Type: biochemical
# settings: read-out: Act. % 510Q
assay metric: activation at 1 µM

QUERY: Given the entry `O=C(c1ccc(NS(=O)(=O)c2cccc3cccnc23)cc1)N1CCN(C[C@H]2CCOC2)CC1` , report its measured activation at 1 µM.
RESULT: 101 to 500%

QUERY: `CC(C)COC(=O)N1[C@H](C)CN(C(=O)c2ccc(NS(=O)(=O)c3cccc4cccnc34)cc2)C[C@@H]1C` ?
RESULT: 101 to 500%

QUERY: `C[C@@H]1CN(Cc2ccc(F)c(F)c2F)CCN1C(=O)c1ccc(NS(=O)(=O)c2cccc3cccnc23)cc1` ?
RESULT: 101 to 500%

QUERY: `O=C(c1ccc(NS(=O)(=O)c2cccc3cccnc23)cc1)N1C2CCC1CN(CC1CC1)C2` ?
RESULT: 1 to 100%

QUERY: `C[C@H]1CN(CC2CC2)CCN1C(=O)c1ccc(NS(=O)(=O)c2cccc3cccnc23)cc1Cl` ?
RESULT: 1 to 100%

QUERY: `C[C@@H]1CN(C[C@@H]2CCCO2)CCN1C(=O)c1ccc(NS(=O)(=O)c2cccc3cccnc23)cc1` ?
RESULT: 101 to 500%

QUERY: CC(c1cc(F)cc(F)c1)N1CCN(C(=O)c2ccc(NS(=O)(=O)c3cccc4cccnc34)cc2)[C@H](C)C1 (stereo partly drawn) ?
RESULT: 101 to 500%

QUERY: `C[C@@H]1CN(C(=O)OCCC2CCCCC2)CCN1C(=O)c1ccc(NS(=O)(=O)c2cccc3cccnc23)cc1` ?
RESULT: 1 to 100%

QUERY: CC(c1ccc(F)cc1F)N1CCN(C(=O)c2ccc(NS(=O)(=O)c3cccc4cccnc34)cc2)[C@@H](C)C1 (stereo partly drawn) ?
RESULT: 1 to 100%

QUERY: `CCOC(=O)N1CCN(C(=O)c2ccc(NS(=O)(=O)c3cccc4cccnc34)cc2)[C@@H](C)C1` ?
RESULT: 1 to 100%

QUERY: `COc1ccccc1N1C[C@@H](C)N(C(=O)c2ccc(NS(=O)(=O)c3cccc4cccnc34)cc2)[C@@H](C)C1` ?
RESULT: 101 to 500%

QUERY: CC(c1cc(F)cc(F)c1)N1CCN(C(=O)c2ccc(NS(=O)(=O)c3cccc4cccnc34)cc2)[C@@H](C)C1 (stereo partly drawn) ?
RESULT: 1 to 100%

QUERY: `C[C@@H]1CN(Cc2ccc(Cl)c(F)c2)CCN1C(=O)c1ccc(NS(=O)(=O)c2cccc3cccnc23)cc1` ?
RESULT: 1 to 100%

QUERY: `C[C@@H]1CN(C[C@H]2CCCO2)CCN1C(=O)c1ccc(NS(=O)(=O)c2cccc3cccnc23)cc1` ?
RESULT: 1 to 100%

QUERY: CC(c1c(F)ccc(F)c1F)N1CCN(C(=O)c2ccc(NS(=O)(=O)c3cccc4cccnc34)cc2)[C@@H](C)C1 (stereo partly drawn) ?
RESULT: 1 to 100%

QUERY: `O=C(c1ccc(NS(=O)(=O)c2cccc3cccnc23)cc1)N1C2CCC1CN(Cc1cc(F)cc(F)c1)C2` ?
RESULT: 101 to 500%

QUERY: `O=C1CN(Cc2cc(F)cc(F)c2)CCN1C(=O)c1ccc(NS(=O)(=O)c2cccc3cccnc23)cc1` ?
RESULT: 1 to 100%

QUERY: `C[C@H]1CN(Cc2cc(F)cc(F)c2F)CCN1C(=O)c1ccc(NS(=O)(=O)c2cccc3cccnc23)cc1` ?
RESULT: 1 to 100%

QUERY: `CC[C@H]1CN(Cc2cc(F)cc(F)c2)CCN1C(=O)c1ccc(NS(=O)(=O)c2cccc3cccnc23)cc1` ?
RESULT: 101 to 500%

QUERY: `C[C@@H]1CN(Cc2c(F)ccc(F)c2F)CCN1C(=O)c1ccc(NS(=O)(=O)c2cccc3cccnc23)cc1` ?
RESULT: 1 to 100%

QUERY: CC1CN(Cc2c(F)ccc(F)c2F)CC(C)N1C(=O)c1ccc(NS(=O)(=O)c2cccc3cccnc23)cc1 (stereo not drawn) ?
RESULT: 1 to 100%

QUERY: CC1CN(CC2CCCCC2)CC(C)N1C(=O)c1ccc(NS(=O)(=O)c2cccc3cccnc23)cc1 (stereo not drawn) ?
RESULT: 101 to 500%

QUERY: `C[C@@H]1CN(C(=O)OC2CCCC2)CCN1C(=O)c1ccc(NS(=O)(=O)c2cccc3cccnc23)cc1` ?
RESULT: 101 to 500%

QUERY: `O=C(c1ccc(NS(=O)(=O)c2cccc3cccnc23)cc1)N1C2CCC1CN(Cc1ccccc1)C2` ?
RESULT: 101 to 500%

QUERY: `CC(C)[C@H]1CN(Cc2ccc(F)cc2)CCN1C(=O)c1ccc(NS(=O)(=O)c2cccc3cccnc23)cc1` ?
RESULT: 1 to 100%

QUERY: `CC(C)OC(=O)N1CCN(C(=O)c2ccc(NS(=O)(=O)c3cccc4cccnc34)cc2)[C@@H](C)C1` ?
RESULT: 101 to 500%

QUERY: `CC(C)[C@H]1CN(Cc2cc(F)cc(F)c2)CCN1C(=O)c1ccc(NS(=O)(=O)c2cccc3cccnc23)cc1` ?
RESULT: 1 to 100%

QUERY: `C[C@@H]1CN(Cc2cc(F)cc(F)c2F)CCN1C(=O)c1ccc(NS(=O)(=O)c2cccc3cccnc23)cc1` ?
RESULT: 1 to 100%

QUERY: `O=C(c1ccc(NS(=O)(=O)c2cccc3cccnc23)cc1)N1CC2CCC(C1)N2Cc1ccccc1` ?
RESULT: 101 to 500%

QUERY: CC(c1ccc(F)cc1)N1CCN(C(=O)c2ccc(NS(=O)(=O)c3cccc4cccnc34)cc2)[C@@H](C)C1 (stereo partly drawn) ?
RESULT: 101 to 500%

QUERY: `O=C1CN(C(=O)c2ccc(NS(=O)(=O)c3cccc4cccnc34)cc2)CCN1Cc1cc(F)cc(F)c1` ?
RESULT: 101 to 500%

QUERY: `C[C@H]1CN(CC2CCCC2)CCN1C(=O)c1ccc(NS(=O)(=O)c2cccc3cccnc23)cc1` ?
RESULT: 101 to 500%

QUERY: CC1CN(Cc2cc(F)c(F)cc2F)CC(C)N1C(=O)c1ccc(NS(=O)(=O)c2cccc3cccnc23)cc1 (stereo not drawn) ?
RESULT: 101 to 500%
